# Tested on: MOLM-13 cells
# Test: MTS cell viability assay, MOLM-13
# Format: cell-based, human
# Condition info: Homo sapiens, MOLM-13, 72 h, MTS, 72 h; AML-FLT3-ITD (heterozygous); supplement values ± SEM; read-out: MOLM-13 EC50
Consider the cut-off 8 nM. If the recorded EC50 is strictly smaller, the label is Condition met; if not, the label is Condition not met.

Ask: Threshold test, EC50 < 8 nM: Cc1cc(Nc2cc(N3CCN(C)CC3)nc(Sc3ccc(NC(=O)C4CC4)cc3)n2)[nH]n1 [VX-680, reference compound]
Result: Condition not met

Ask: Threshold test, EC50 < 8 nM: Cc1ccc(F)c(NC(=O)Nc2ccc(-c3cccc4[nH]nc(N)c34)cc2)c1
Result: Condition not met

Ask: Threshold test, EC50 < 8 nM: CN(C)CCOc1ccc2c(NCCc3cnc(NC(=O)Nc4cccc(Cl)c4)s3)ncnc2c1
Result: Condition not met

Ask: Threshold test, EC50 < 8 nM: COc1ccc(Cl)cc1NC(=O)Nc1ncc(CCNc2ncnc3cc(OCCCN(C)C)ccc23)s1
Result: Condition met

Ref: paper PMC5349910
